- system: T1, nuclear SREBP-1c (nSREBP-1c) (rat, UniProt P56720-1 1-456)
- T1 sequence: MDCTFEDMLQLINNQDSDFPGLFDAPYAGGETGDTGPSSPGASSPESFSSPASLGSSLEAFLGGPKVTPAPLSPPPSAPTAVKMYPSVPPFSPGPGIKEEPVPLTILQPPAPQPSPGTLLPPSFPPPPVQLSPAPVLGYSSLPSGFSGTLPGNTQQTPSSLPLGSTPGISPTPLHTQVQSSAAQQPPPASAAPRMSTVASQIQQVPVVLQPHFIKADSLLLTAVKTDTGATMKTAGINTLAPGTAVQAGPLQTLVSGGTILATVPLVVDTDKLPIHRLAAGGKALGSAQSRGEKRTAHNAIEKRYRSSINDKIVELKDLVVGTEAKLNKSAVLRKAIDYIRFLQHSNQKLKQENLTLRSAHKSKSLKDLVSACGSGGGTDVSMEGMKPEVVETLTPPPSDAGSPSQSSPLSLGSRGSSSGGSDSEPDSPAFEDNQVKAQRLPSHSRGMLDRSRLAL
- assayName: EMSA; EMSA with DIG-labeled annealed oligonucleotides (Roche DIG Gel Shift Kit, 2nd Generation) and TNT T7 in vitro-translated proteins; buffer, salt, pH and temperature not stated (ref 19)
- testContext: protein: ivt; chain copies: 2; label: DIG end-label; 5' overhangs 4 nt (AGCT / TCGA)
readoutKind: binding result

• rTPO VI mut3 (dsDNA) DNA 1: AGCTCAGGCCTCTCCTCAGACTAATCCTCCCAAGT DNA 2: TCGAACTTGGGAGGATTAGTCTGAGGAGAGGCCTG = binds
• rTPO VI mut2 (dsDNA) DNA 1: AGCTCAGGCCTCTCCTCAGGTGGGGTTGACCAAGT DNA 2: TCGAACTTGGTCAACCCCACCTGAGGAGAGGCCTG = binds
